assay notes: xn = mol fraction of the nth substance listed, in the solute-free solvent
condition context: 313.15 K; x2 = 0.1
Please enter Condition met where solubility (g/100 g solution) is greater than or equal to 0.8, and Condition not met where it is lower.

Example cases with answers are listed next.
1) O=C(NC(C(=O)O)c1ccccc1)OCc1ccccc1 (centres undefined) + CCO + O; Condition not met
2) Cc1c(Br)c(=O)n(C2CCCC2)c2nc(Cl)ncc12 + CCOC(C)=O + CCO; Condition not met
3) Cl.NC(Cc1ccccc1)C(=O)OCc1ccccc1 (centres undefined) + CO + CC(C)=O; Condition not met
4) Cl.N=C(N)NC(=N)N1CCOCC1 + O + CC(C)O; Condition met

Assess whether reported solubility (g/100 g solution) for CCOc1ccccc1C(N)=O + CO + CC#N sits at 0.8 or higher.
Condition met

Assess whether reported solubility (g/100 g solution) for Cc1c(Br)c(=O)n(C2CCCC2)c2nc(Cl)ncc12 + C1CCOC1 + CCO sits at 0.8 or higher.
Condition met

====

assay notes: xn = mol fraction of the nth substance listed, in the solute-free solvent
condition context: 318.15 K; x2 = 0.5
molecules and their reported solubility (g/100 g solution)
Kindly provide the number alone.

// worked examples, solubility (g/100 g solution) included
1) CCOc1ccccc1C(N)=O + CCO + CC#N; 19.9
2) CCOc1ccccc1C(N)=O + CC#N + CC(C)O; 16.1
3) Cc1c(Br)c(=O)n(C2CCCC2)c2nc(Cl)ncc12 + C1CCOC1 + CCO; 8.2
4) CCOc1ccccc1C(N)=O + CO + CC#N; 23.4
5) Cc1c(Br)c(=O)n(C2CCCC2)c2nc(Cl)ncc12 + CCOC(C)=O + CCO; 1.28

Next, consider the following molecule.
solubility (g/100 g solution) recorded for this molecule, Cc1c(Br)c(=O)n(C2CCCC2)c2nc(Cl)ncc12 + CC1=CC(=O)CC(C)(C)C1 + CC(C)O , is 3.43

====

assay notes: xn = mol fraction of the nth substance listed, in the solute-free solvent
condition context: 298.15 K; x2 = 0.3
experimental endpoint: solubility (g/100 g solution)
Kindly provide the number alone.

1. Cc1c(Br)c(=O)n(C2CCCC2)c2nc(Cl)ncc12 + CCOC(C)=O + CCO; 0.574

solubility (g/100 g solution) recorded for this compound, Cc1c(Br)c(=O)n(C2CCCC2)c2nc(Cl)ncc12 + CC1=CC(=O)CC(C)(C)C1 + CC(C)O , is 0.828

solubility (g/100 g solution) recorded for this compound, Cc1c(Br)c(=O)n(C2CCCC2)c2nc(Cl)ncc12 + C1CCOC1 + CCO , is 3.05

solubility (g/100 g solution) recorded for this compound, Cc1ncc(CO)c(CO)c1O.Cl + O + CCCO , is 1.8

solubility (g/100 g solution) recorded for this compound, Cc1ncc(CO)c(CO)c1O.Cl + O + CC(C)O , is 1.01

====

molecules and their reported solubility (g/100 g solution)
assay notes: xn = mol fraction of the nth substance listed, in the solute-free solvent
condition context: 323.15 K; x2 = 0.3
Kindly provide the number alone.

1) Cc1c(Br)c(=O)n(C2CCCC2)c2nc(Cl)ncc12 + C1CCOC1 + CCO; 6.51
2) Cl.NC(Cc1ccccc1)C(=O)OCc1ccccc1 (centres undefined) + CO + CC(C)=O; 2.96
3) Cl.N=C(N)NC(=N)N1CCOCC1 + O + CC(C)O; 5.83
4) CCOc1ccccc1C(N)=O + CC#N + CC(C)O; 17.7
5) CCOc1ccccc1C(N)=O + CO + CC#N; 24

Next, consider the following molecule.
solubility (g/100 g solution) recorded for this molecule, Cc1c(Br)c(=O)n(C2CCCC2)c2nc(Cl)ncc12 + CCOC(C)=O + CCO , is 1.17

====

assay notes: xn = mol fraction of the nth substance listed, in the solute-free solvent
condition context: 288.15 K; x2 = 0.6
Please enter 1 where solubility (g/100 g solution) is greater than or equal to 5, and -1 where it is lower.

Example cases with answers are listed next.
1. N#CCNC(=O)c1cnccc1C(F)(F)F + CCOC(C)=O + CCO; 1
2. CCOC(=O)OC1=C(c2cc(C)ccc2C)C(=O)NC12CCC(OC)CC2 (configuration not stated) + CCO + O; -1
3. Cc1ncc(CO)c(CO)c1O.Cl + O + CC(C)O; -1
4. Cc1ncc(CO)c(CO)c1O.Cl + O + CC#N; 1
5. Cc1c(Br)c(=O)n(C2CCCC2)c2nc(Cl)ncc12 + C1CCOC1 + CCO; -1
6. Cc1c(Br)c(=O)n(C2CCCC2)c2nc(Cl)ncc12 + CC1=CC(=O)CC(C)(C)C1 + CC(C)O; -1
7. Cc1c(Br)c(=O)n(C2CCCC2)c2nc(Cl)ncc12 + CCOC(C)=O + CCO; -1
8. CCOC(=O)OC1=C(c2cc(C)ccc2C)C(=O)NC12CCC(OC)CC2 (configuration not stated) + CC(C)=O + O; 1

Okay, next one:
Assess whether reported solubility (g/100 g solution) for CCOC(=O)OC1=C(c2cc(C)ccc2C)C(=O)NC12CCC(OC)CC2 (configuration not stated) + CO + O sits at 5 or higher.
-1

====

compounds and their reported solubility (g/100 g solution)
assay notes: xn = mol fraction of the nth substance listed, in the solute-free solvent
condition context: 303.15 K; x2 = 0.5454
Kindly provide the number alone.

// worked examples, solubility (g/100 g solution) included
1. c1ccc(-c2ccc(C(c3ccccc3)n3ccnc3)cc2)cc1 (centres undefined) + CCCO + O; 3.09
2. Cc1nc2n(c(=O)c1CCN1CCC(c3noc4cc(F)ccc34)CC1)CCCC2 + CC(C)O + O; 10.4
3. Nc1nc2ccc(OC(F)(F)F)cc2s1 + CCCO + O; 63.6

Next, consider the following compound.
solubility (g/100 g solution) recorded for this compound, c1ccc(-c2ccc(C(c3ccccc3)n3ccnc3)cc2)cc1 (centres undefined) + CC(C)O + O , is 2.97

====

compounds and their reported solubility (g/100 g solution)
assay notes: xn = mol fraction of the nth substance listed, in the solute-free solvent
condition context: 298.15 K; x2 = 0.7

solubility (g/100 g solution) recorded for this compound, Cc1c(Br)c(=O)n(C2CCCC2)c2nc(Cl)ncc12 + CCOC(C)=O + CCO , is 0.873

solubility (g/100 g solution) recorded for this compound, CCOc1ccccc1C(N)=O + CCO + CC#N , is 7.95

solubility (g/100 g solution) recorded for this compound, COC(=O)C(N)CS.Cl (centres undefined) + CCO + ClCCl , is 7.51

solubility (g/100 g solution) recorded for this compound, CCOc1ccccc1C(N)=O + CC#N + CC(C)O , is 6.22

====

assay notes: xn = mol fraction of the nth substance listed, in the solute-free solvent
condition context: 323.15 K; x2 = 0.8
Would you mind classing the entries by solubility (g/100 g solution)? Ranges: bucket A = under 10, bucket B = from 10 up to 20, bucket C = 20 and over

Example cases with answers are listed next.
1) Cc1c(Br)c(=O)n(C2CCCC2)c2nc(Cl)ncc12 + C1CCOC1 + CCO; bucket B
2) Cl.N=C(N)NC(=N)N1CCOCC1 + O + CC(C)O; bucket C
3) O=C(NC(C(=O)O)c1ccccc1)OCc1ccccc1 (stereo not given) + CCO + O; bucket C
4) CCOc1ccccc1C(N)=O + CC#N + CCO; bucket B
5) N#CCNC(=O)c1cnccc1C(F)(F)F + CCOC(C)=O + CCO; bucket B
6) Cl.NC(Cc1ccccc1)C(=O)OCc1ccccc1 (stereo not given) + CO + CC(C)=O; bucket B
7) Cc1c(Br)c(=O)n(C2CCCC2)c2nc(Cl)ncc12 + CC1=CC(=O)CC(C)(C)C1 + CC(C)O; bucket A
8) CCOc1ccccc1C(N)=O + CC#N + CC(C)O; bucket B

Band for CCOc1ccccc1C(N)=O + CO + CC#N ?
bucket C

Band for Cc1c(Br)c(=O)n(C2CCCC2)c2nc(Cl)ncc12 + CCOC(C)=O + CCO ?
bucket A

====

molecules and their reported solubility (g/100 g solution)
assay notes: xn = mol fraction of the nth substance listed, in the solute-free solvent
condition context: 298.15 K; x2 = 0.5454

1) c1ccc(-c2ccc(C(c3ccccc3)n3ccnc3)cc2)cc1 (centres undefined) + CCCO + O; 2.37

solubility (g/100 g solution) recorded for this molecule, Nc1nc2ccc(OC(F)(F)F)cc2s1 + CCCO + O , is 61.7

solubility (g/100 g solution) recorded for this molecule, c1ccc(-c2ccc(C(c3ccccc3)n3ccnc3)cc2)cc1 (centres undefined) + CC(C)O + O , is 2.39

solubility (g/100 g solution) recorded for this molecule, Cc1nc2n(c(=O)c1CCN1CCC(c3noc4cc(F)ccc34)CC1)CCCC2 + CC(C)O + O , is 8.78

Numbers sourced from the CheMixHub drug solubility set.
